Molecular target: Coagulation factor VII/tissue factor (Homo sapiens) (UniProt P08709+P13726)
Assay: Selectivity for F7a/TF over trypsin
Type: protein-complex assay
Measurement Name: Ratio Ki

Recorded Ratio Ki, per entry:
CC(=O)c1cccc(NC(=O)NCc2cccc(-c3cccc(-c4cc5c[nH]ccc-5n4)c3O)c2)c1 : 2170
O=C(NCc1cccc(-c2cccc(-c3cc4c[nH]ccc-4n3)c2O)c1)Nc1ccc(C(=O)O)cc1 : 1100
O=C(NCc1cccc(-c2cccc(-c3cc4c[nH]ccc-4n3)c2O)c1)Nc1ccccn1 : 56
CN1CCN(C(=O)NCc2cccc(-c3cccc(-c4cc5c[nH]ccc-5n4)c3O)c2)CC1 : 1

Query: Please look up its Ratio Ki: O=C(NCc1cccc(-c2cccc(-c3cc4c[nH]ccc-4n3)c2O)c1)C(CO)c1ccccc1 (centres undefined)
Reply: 57

Query: Reported Ratio Ki for O=C(NCc1cccc(-c2cccc(-c3cc4c[nH]ccc-4n3)c2O)c1)Nc1ccccc1F : what is it?
Reply: 2630

Query: Bench note: what Ratio Ki did O=C(NCc1cccc(-c2cccc(-c3cc4c[nH]ccc-4n3)c2O)c1)Nc1cccc(F)c1 show?
Reply: 1150

Query: # query: Ratio Ki of entry CC(=O)c1ccc(NC(=O)NCc2cccc(-c3cccc(-c4cc5c[nH]ccc-5n4)c3O)c2)cc1
Reply: 495

Query: Quick check: Ratio Ki of O=C(NCc1cccc(-c2cccc(-c3cc4c[nH]ccc-4n3)c2O)c1)Nc1ccccc1Cl ?
Reply: 2630

* * *

Biological target: Coagulation factor VII/tissue factor (Homo sapiens) (UniProt P08709+P13726)
Experiment: Selectivity for F7a/TF over trypsin
Assay type: protein-complex assay
Measurement Name: Ratio Ki
Answer field: number only, no words.

Use the examples below as a reference point.
O=C(NCc1cccc(-c2cccc(-c3cc4c[nH]ccc-4n3)c2O)c1)N1CCCC1 : 9
O=C(NCc1cccc(-c2cccc(-c3cc4c[nH]ccc-4n3)c2O)c1)C(O)c1ccccc1 (centres undefined) : 57
O=C(NCc1cccc(-c2cccc(-c3cc4c[nH]ccc-4n3)c2O)c1)Nc1cccs1 : 538

The record that follows has no Ratio Ki shown yet.
Query: Looking for the measured Ratio Ki of O=C(NCc1cccc(-c2cccc(-c3cc4c[nH]ccc-4n3)c2O)c1)Nc1cc(F)cc(F)c1 , can you help?
Reply: 181

* * *

Test: Binding affinity to trypsin
Parameters: species or system Homo sapiens
Measurement Name: pKi
pKi here is simply -log10 of the concentration when that concentration is written in mol/L.

N=C(N)c1ccc2[nH]c(-c3cccc(-c4cc(CNC(N)=O)ccc4O)c3O)nc2c1 : 5.44

Please turn your attention to the following entry.
Query: Give its pKi value. Item: NC(=O)NCc1cccc(-c2cccc(-c3cc4c[nH]ccc-4n3)c2O)c1
Reply: 4.33

* * *

Target: Thrombin and coagulation factor VII (Homo sapiens) (UniProt P00734+P08709)
Test: Selectivity for F7a/TF over F2a
Type: protein assay
Respond with met for Ratio Ki values of 1000 and above, not met for values below.

Some solved cases for reference:
O=C(NCc1cccc(-c2cccc(-c3cc4c[nH]ccc-4n3)c2O)c1)Nc1ccccc1 : met
CC(=O)c1ccc(NC(=O)NCc2cccc(-c3cccc(-c4cc5c[nH]ccc-5n4)c3O)c2)cc1 : not met
O=C(Cc1c(F)cccc1F)NCc1cccc(-c2cccc(-c3cc4c[nH]ccc-4n3)c2O)c1 : not met
O=C(NCc1cccc(-c2cccc(-c3cc4c[nH]ccc-4n3)c2O)c1)Nc1cccnc1 : not met
O=C(NCc1cccc(-c2cccc(-c3cc4c[nH]ccc-4n3)c2O)c1)Nc1c(F)cccc1F : met

Query: Does the compound COc1cccc(NC(=O)NCc2cccc(-c3cccc(-c4cc5c[nH]ccc-5n4)c3O)c2)c1 have recorded Ratio Ki that is 1000 or more?
Reply: met

Query: Decide: is the reported value of Ratio Ki for O=C(NCc1cccc(-c2cccc(-c3cc4c[nH]ccc-4n3)c2O)c1)N1CCCC1 equal to or greater than 1000?
Reply: not met

Query: Determine whether measured Ratio Ki meets or exceeds 1000 for O=C(NCc1cccc(-c2cccc(-c3cc4c[nH]ccc-4n3)c2O)c1)Nc1cccc(F)c1
Reply: met

Query: Check if Ratio Ki >= 1000 (inclusive). Item: O=C(NCc1cccc(-c2cccc(-c3cc4c[nH]ccc-4n3)c2O)c1)Nc1ccccc1Cl
Reply: met

* * *

Target: Prothrombin (Homo sapiens, UniProt P00734)
Measurement Name: Ki (µM)
Express your answer in µM, writing the number without its unit.

Query: Enter reported Ki observed with Prothrombin (Homo sapiens, UniProt P00734) for NC(=O)NCc1cccc(-c2cccc(-c3cc4c[nH]ccc-4n3)c2O)c1
Reply: 71.5

* * *

Target: Coagulation factor VII (Homo sapiens, UniProt P08709)
Sequence (P08709 whole entry): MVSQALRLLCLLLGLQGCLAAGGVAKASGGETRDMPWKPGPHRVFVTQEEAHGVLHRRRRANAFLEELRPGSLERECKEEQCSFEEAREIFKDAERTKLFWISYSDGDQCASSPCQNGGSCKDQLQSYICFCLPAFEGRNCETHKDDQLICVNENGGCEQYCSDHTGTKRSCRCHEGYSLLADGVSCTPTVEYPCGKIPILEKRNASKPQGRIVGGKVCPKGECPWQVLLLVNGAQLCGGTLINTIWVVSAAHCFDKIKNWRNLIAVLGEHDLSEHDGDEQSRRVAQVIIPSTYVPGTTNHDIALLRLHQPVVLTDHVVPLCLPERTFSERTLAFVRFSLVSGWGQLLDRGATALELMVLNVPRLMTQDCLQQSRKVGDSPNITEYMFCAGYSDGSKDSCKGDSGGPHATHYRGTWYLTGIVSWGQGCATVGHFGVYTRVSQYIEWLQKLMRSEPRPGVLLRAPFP
Assay: Binding affinity to F7a/TF complex
Measurement Name: pKi
In textbook form, pKi equals minus log to base ten of the concentration in mol/L.

Some solved cases for reference:
COc1cccc(NC(=O)NCc2cccc(-c3cccc(-c4cc5c[nH]ccc-5n4)c3O)c2)c1 : 7.00
COc1ccccc1NC(=O)NCc1cccc(-c2cccc(-c3cc4c[nH]ccc-4n3)c2O)c1 : 7.33
O=C(NCc1cccc(-c2cccc(-c3cc4c[nH]ccc-4n3)c2O)c1)Nc1cccc(F)c1 : 6.89
COc1ccc(NC(=O)NCc2cccc(-c3cccc(-c4cc5c[nH]ccc-5n4)c3O)c2)cc1 : 7.06

Query: Entry under review: O=C(NCc1cccc(-c2cccc(-c3cc4c[nH]ccc-4n3)c2O)c1)N(O)Cc1ccccc1 . Reported pKi?
Reply: 7.14

Query: Fill in the blank: the reported pKi of CCCCCNC(=O)NCc1cccc(-c2cccc(-c3cc4c[nH]ccc-4n3)c2O)c1 is ____.
Reply: 6.47

Query: What value of pKi has been recorded for this entry: O=C(NCc1cccc(-c2cccc(-c3cc4c[nH]ccc-4n3)c2O)c1)Nc1cccnc1
Reply: 6.81

Query: Sample CC(=O)c1cccc(NC(=O)NCc2cccc(-c3cccc(-c4cc5c[nH]ccc-5n4)c3O)c2)c1 — what was its pKi?
Reply: 7.22

Query: Would you mind telling me what pKi value was observed for O=C(NCc1cccc(-c2cccc(-c3cc4c[nH]ccc-4n3)c2O)c1)Nc1ccccc1 ?
Reply: 7.21

Query: Could you share which pKi value was measured for O=C(NCc1cccc(-c2cccc(-c3cc4c[nH]ccc-4n3)c2O)c1)Nc1ccc(F)cc1 ?
Reply: 6.96

Query: If you can, please state the reported pKi value of O=C(NCc1cccc(-c2cccc(-c3cc4c[nH]ccc-4n3)c2O)c1)Nc1ccc(C(=O)O)cc1 .
Reply: 7.24

Query: Value lookup for pKi; key = O=C(NCc1cccc(-c2cccc(-c3cc4c[nH]ccc-4n3)c2O)c1)C(CO)c1ccccc1 (stereo not drawn)
Reply: 6.66

* * *

Target: Coagulation factor X (Homo sapiens)
Sequence (P00742 41-179 limits assumed): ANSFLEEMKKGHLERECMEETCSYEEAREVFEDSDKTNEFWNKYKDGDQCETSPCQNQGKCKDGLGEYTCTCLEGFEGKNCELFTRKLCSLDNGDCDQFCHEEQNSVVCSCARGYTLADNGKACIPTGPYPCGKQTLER
Sequence (P00742 235-488 limits assumed): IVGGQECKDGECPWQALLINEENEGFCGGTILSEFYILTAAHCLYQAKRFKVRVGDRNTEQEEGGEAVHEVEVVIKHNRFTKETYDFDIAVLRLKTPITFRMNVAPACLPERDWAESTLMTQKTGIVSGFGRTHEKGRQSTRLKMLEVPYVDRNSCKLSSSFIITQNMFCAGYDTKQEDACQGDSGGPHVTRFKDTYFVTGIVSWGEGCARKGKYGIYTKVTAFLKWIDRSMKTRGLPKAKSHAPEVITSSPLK
Measurement Name: pKi
Lab note: report pKi as minus log10 of the concentration in molar units, number only.

Query: Recall the recorded pKi for NC(=O)NCc1cccc(-c2cccc(-c3cc4c[nH]ccc-4n3)c2O)c1 with Coagulation factor X (Homo sapiens) and state it.
Reply: 3.90

* * *

Molecular target: Thrombin and coagulation factor VII (Homo sapiens) (UniProt P00734+P08709)
Test: Selectivity for F7a/TF over F2a
Assay type: protein assay
Measurement Name: Ratio Ki

Reference set (3 entries):
COc1ccc(NC(=O)NCc2cccc(-c3cccc(-c4cc5c[nH]ccc-5n4)c3O)c2)c(OC)c1 : 3180
O=C(NCc1cccc(-c2cccc(-c3cc4c[nH]ccc-4n3)c2O)c1)Nc1ccsc1 : 769
O=C(NCCc1cccs1)NCc1cccc(-c2cccc(-c3cc4c[nH]ccc-4n3)c2O)c1 : 169

Query: Param readout= Ratio Ki; system= Thrombin and coagulation factor VII (Homo sapiens) (UniProt P00734+P08709); entry= O=C(NCc1cccc(-c2cccc(-c3cc4c[nH]ccc-4n3)c2O)c1)N(O)Cc1ccccc1 ; returns value.
Reply: 750

* * *

Biological target: Coagulation factor VII/tissue factor (Homo sapiens) (UniProt P08709+P13726)
Assay: Selectivity for F7a/TF over trypsin
Type: protein-complex assay
Simple rule here: Ratio Ki less than 1000 is fulfilled, otherwise not fulfilled.

Examples with answers:
COc1ccc(NC(=O)NCc2cccc(-c3cccc(-c4cc5c[nH]ccc-5n4)c3O)c2)cc1 : not fulfilled
O=C(Cc1ccccc1)NCc1cccc(-c2cccc(-c3cc4c[nH]ccc-4n3)c2O)c1 : fulfilled
COc1ccccc1NC(=O)NCc1cccc(-c2cccc(-c3cc4c[nH]ccc-4n3)c2O)c1 : not fulfilled
O=C(NCc1cccc(-c2cccc(-c3cc4c[nH]ccc-4n3)c2O)c1)N(O)Cc1ccccc1 : fulfilled
O=C(NCc1cccc(-c2cccc(-c3cc4c[nH]ccc-4n3)c2O)c1)Nc1ccc(F)cc1 : not fulfilled

Query: Item O=C(NCc1cccc(-c2cccc(-c3cc4c[nH]ccc-4n3)c2O)c1)Nc1cccnc1 : Ratio Ki beneath 1000, strictly?
Reply: fulfilled

Query: Below 1000 on Ratio Ki? Entry CCCCCNC(=O)NCc1cccc(-c2cccc(-c3cc4c[nH]ccc-4n3)c2O)c1
Reply: fulfilled

Query: Criterion: Ratio Ki strictly below 1000. Is it met by O=C(NCc1cccc(-c2cccc(-c3cc4c[nH]ccc-4n3)c2O)c1)Nc1c(F)cccc1F ?
Reply: not fulfilled

Query: Given the entry O=C(NCc1cccc(-c2cccc(-c3cc4c[nH]ccc-4n3)c2O)c1)Nc1ccc(F)c(F)c1 , would its reported Ratio Ki be below 1000?
Reply: fulfilled
